Measured values drawn from patent US11964950B2 for this set.

- Tested on: Calu-6 human lung cancer cells
- assay-name: Cell proliferation-inhibiting activity, Calu-6 (CellTiter-Glo, ATP in viable cells)
- Format: cell-based
- experimental-conditions: Calu-6, 96 h, Table 3, 4 days culture
Measured IC50 by item

| structure-as-smiles | IC50 |
| --- | --- |
| NC(=O)c1cc(Cc2cccc(NS(=O)(=O)C3CCC3)c2F)c(F)c(F)c1Nc1ccc(I)cc1F | 103 nM |
| CCS(=O)(=O)Nc1cc(Cc2cc(C(N)=O)c(Nc3ccc(I)cc3F)n(C)c2=O)ccn1 | 471 nM |
| NC(=O)c1cc(Cc2cccc(NS(=O)(=O)C3COC3)c2F)c(F)c(F)c1Nc1ccc(I)cc1F | 109 nM |
| Cn1c(Nc2ccc(I)cc2F)c(C(N)=O)cc(Cc2ccnc(NS(=O)(=O)NC3(C)CCC3)c2F)c1=O | 284 nM |
| COCCS(=O)(=O)Nc1cccc(Cc2cc(C(N)=O)c(Nc3ccc(I)cc3F)c(F)c2F)c1 | 118 nM |
| CCS(=O)(=O)Nc1cccc(Cc2cc(C(=O)NC3CC3)c(Nc3ccc(I)cc3F)n(C)c2=O)c1F | 122 nM |
| Cn1c(Nc2ccc(I)cc2F)c(C(N)=O)cc(Cc2ccnc(NS(=O)(=O)NC3CC3)c2F)c1=O | 281 nM |
| CC1(NS(=O)(=O)Nc2nccc(Cc3cc(C(=O)NC4CC4)c(Nc4ccc(I)cc4F)c(F)c3F)c2F)CCC1 | 104 nM |
| CC1(NS(=O)(=O)Nc2cccc(Cc3cc(C(=O)NC4CC4)c(Nc4ccc(I)cc4F)c(F)c3F)c2F)CCC1 | 307 nM |
| CCS(=O)(=O)Nc1nccc(Cc2cc(C(N)=O)c(Nc3ccc(I)cc3F)c(F)c2F)c1F | 122 nM |
| CCS(=O)(=O)Nc1nccc(Cn2cc(C(N)=O)c(Nc3ccc(I)cc3F)c(C)c2=O)c1F | 337 nM |
| CCS(=O)(=O)Nc1nccc(Cn2cc(C(=O)NOC)c(Nc3ccc(I)cc3F)c(C)c2=O)c1F | 447 nM |
| CCCS(=O)(=O)Nc1nccc(Cc2cc(C(N)=O)c(Nc3ccc(I)cc3F)c(F)c2F)c1F | 233 nM |
| CCS(=O)(=O)Nc1cccc(Cc2cc(C(=O)NC3CC3)c(Nc3ccc(I)cc3F)c(F)c2F)c1F | 112 nM |
| CCCS(=O)(=O)Nc1cccc(Cc2cc(C(N)=O)c(Nc3ccc(I)cc3F)c(F)c2F)c1F | 122 nM |
| COCCNS(=O)(=O)Nc1nccc(Cc2cc(C(=O)NOC)c(Nc3ccc(I)cc3F)n(C)c2=O)c1F | 232 nM |

###

- Tested on: NCI-H2122 human lung cancer cells
- assay-name: Cell proliferation-inhibiting activity, NCI-H2122 (CellTiter-Glo, ATP in viable cells)
- Type: cell-based
- experimental-conditions: NCI-H2122, 96 h, Table 3, 4 days culture
pIC50: −log10 of the molar value.
In this section, each of the compounds is paired with its reported pIC50.

| structure-as-smiles | pIC50 |
| --- | --- |
| CNS(=O)(=O)Nc1nccc(Cc2cc(C(=O)NC3CC3)c(Nc3ccc(C4CC4)cc3F)c(F)c2F)c1F | 8.22 |
| CCS(=O)(=O)Nc1nccc(Cn2cc(C(N)=O)c(Nc3ccc(I)cc3F)c(C)c2=O)c1F | 6.96 |
| NC(=O)c1cc(Cc2ccnc(NS(=O)(=O)NC3CC3)c2F)c(F)cc1Nc1ccc(I)cc1F | 7.68 |

###

Consider the following compounds and their measured microsomal CLint at 0.99 µM readings.
- assay-name: Human liver microsome stability
- Type: in vitro ADME
- experimental-conditions: human liver microsomes (XENOTECH), pH 7.4, hepatic intrinsic clearance, NADPH, 37° C.
measurement-label: microsomal CLint at 0.99 µM (µL/min/mg)

| structure-as-smiles | measurement-label | unit-text | number |
| --- | --- | --- | --- |
| CS(=O)(=O)Nc1cccc(Cc2cc(C(=O)NC3CC3)c(Nc3ccc(I)cc3F)c(F)c2F)c1F | microsomal CLint at 0.99 µM | µL/min/mg | 8 |
| COCC1(S(=O)(=O)Nc2cccc(Cc3cc(C(=O)NOC)c(Nc4ccc(I)cc4F)c(F)c3F)c2F)CC1 | microsomal CLint at 0.99 µM | µL/min/mg | 149 |
| COCC1(NS(=O)(=O)Nc2nccc(Cc3cc(C(N)=O)c(Nc4ccc(I)cc4F)c(F)c3F)c2F)CC1 | microsomal CLint at 0.99 µM | µL/min/mg | 47 |
| CS(=O)(=O)Nc1cccc(Cc2cc(C(N)=O)c(Nc3ccc(I)cc3F)c(F)c2F)c1F | microsomal CLint at 0.99 µM | µL/min/mg | 25 |
| CCS(=O)(=O)Nc1cccc(Cc2cc(C(=O)NOC(C)(C)C)c(Nc3ccc(I)cc3F)n(C)c2=O)c1F | microsomal CLint at 0.99 µM | µL/min/mg | 185 |

###

- Tested on: Calu-6 human lung cancer cells
- assay-name: Cell proliferation-inhibiting activity, Calu-6 (CellTiter-Glo, ATP in viable cells)
- Format: cell-based
- experimental-conditions: Calu-6, 96 h, Table 3, 4 days culture
Please assign 0.0 whenever IC50 is at or above 100 nM, and 1.0 whenever it is below.

| structure-as-smiles | measurement-target | group |
| --- | --- | --- |
| CCNS(=O)(=O)Nc1nccc(Cc2cc(C(N)=O)c(Nc3ccc(I)cc3F)n(C)c2=O)c1F | Calu-6 human lung cancer cells | 0.0 |
| CNS(=O)(=O)Nc1cccc(Cc2cc(C(=O)NC3CC3)c(Nc3ccc(C4CC4)cc3F)c(F)c2F)c1F | Calu-6 human lung cancer cells | 0.0 |
| CNS(=O)(=O)Nc1nccc(Cc2cc(C(=O)NC3CC3)c(Nc3ccc(I)cc3F)c(F)c2F)c1F | Calu-6 human lung cancer cells | 1.0 |
| CNS(=O)(=O)Nc1nccc(Cc2cc(C(=O)NOC)c(Nc3ccc(Cl)cc3F)c(F)c2F)c1F | Calu-6 human lung cancer cells | 0.0 |
| Cc1c(Nc2ccc(I)cc2F)c(C(N)=O)cn(Cc2ccnc(NS(=O)(=O)NC3(C)CCC3)c2F)c1=O | Calu-6 human lung cancer cells | 0.0 |
| NC(=O)c1cc(Cc2cccc(NS(=O)(=O)CCCF)c2F)c(F)c(F)c1Nc1ccc(I)cc1F | Calu-6 human lung cancer cells | 0.0 |
| NC(=O)c1cc(Cc2ccnc(NS(=O)(=O)NC3CC3)c2F)c(F)cc1Nc1ccc(I)cc1F | Calu-6 human lung cancer cells | 0.0 |
| CNS(=O)(=O)Nc1nccc(Cc2cc(C(N)=O)c(Nc3ccc(C4CC4)cc3F)n(C)c2=O)c1F | Calu-6 human lung cancer cells | 0.0 |
| CCS(=O)(=O)Nc1nccc(Cc2cc(C(=O)NC3CC3)c(Nc3ccc(C4CC4)cc3F)c(F)c2F)c1F | Calu-6 human lung cancer cells | 0.0 |
| CNS(=O)(=O)Nc1nccc(Cc2cc(C(=O)NC3CC3)c(Nc3ccc(C4CC4)cc3F)c(F)c2F)c1F | Calu-6 human lung cancer cells | 1.0 |

###

- System: NCI-H2122 human lung cancer cells
- assay-name: Cell proliferation-inhibiting activity, NCI-H2122 (CellTiter-Glo, ATP in viable cells)
- Assay type: cell-based
- experimental-conditions: NCI-H2122, 96 h, Table 3, 4 days culture
List of IC50 values.
measurement-label: IC50 (nM)

| structure-as-smiles | measurement-label | number |
| --- | --- | --- |
| CNS(=O)(=O)Nc1nccc(Cc2cc(C(N)=O)c(Nc3ccc(C4CC4)cc3F)n(C)c2=O)c1F | IC50 | 123 |
| CNS(=O)(=O)Nc1nccc(Cc2cc(C(N)=O)c(Nc3ccc4sccc4c3F)c(F)c2F)c1F | IC50 | 1 |
| CNS(=O)(=O)Nc1cccc(Cc2cc(C(=O)NC3CC3)c(Nc3ccc(C4CC4)cc3F)c(F)c2F)c1F | IC50 | 11 |
| CNS(=O)(=O)Nc1nccc(Cc2cc(C(=O)NC3CC3)c(Nc3ccc(I)cc3F)c(F)c2F)c1F | IC50 | 0.1 |
